System: 377384-186-R-J1-PDC complex spheroid viability
Assay: Anticancer human tumor 377384-186-R-J1-PDC patient-derived pancreatic carcinoma cell line growth inhibition [CLK]
Conditions: second compound 10 µM; first compound 0.0316 µM; hits give low values
// values below are reported viability, T/C
Answer format: numeric, % implied, no suffix.

Answered cases to consult:
compound: Nc1ccn(C2OC(CO)C(O)C2(F)F)c(=O)n1 (centres undefined) + CN1CCN(c2cc(C(=O)Nc3cc4cc(-c5cnn(C)c5)ccc4cn3)ccn2)CC1
targetEntity: 377384-186-R-J1-PDC complex spheroid viability
readoutUnit: %
viability, T/C: 0.21
--
compound: CCc1c2c(nc3ccc(O)cc13)-c1cc3c(c(=O)n1C2)COC(=O)[C@]3(O)CC + CNC(=O)c1ccc(Nc2nc(OC3CCCC3)c3c(-c4ccc5nc(C)oc5c4)c[nH]c3n2)c(OC)c1
targetEntity: 377384-186-R-J1-PDC complex spheroid viability
readoutUnit: %
viability, T/C: 3.76
--
compound: O=C(c1cc(Cc2n[nH]c(=O)c3ccccc23)ccc1F)N1CCN(C(=O)C2CC2)CC1 + CN1CCN(c2cc(C(=O)Nc3cc4cc(-c5cnn(C)c5)ccc4cn3)ccn2)CC1
targetEntity: 377384-186-R-J1-PDC complex spheroid viability
readoutUnit: %
viability, T/C: 0.42

Prompt: Data request, read-out viability, T/C, for CC(=O)O[C@H]1C(=O)[C@@]2(C)[C@H]([C@H](OC(=O)c3ccccc3)[C@]3(O)C[C@H](OC(=O)[C@H](O)[C@@H](NC(=O)c4ccccc4)c4ccccc4)C(C)=C1C3(C)C)[C@]1(OC(C)=O)CO[C@@H]1C[C@@H]2O + CNC(=O)c1ccc(Nc2nc(OC3CCCC3)c3c(-c4ccc5nc(C)oc5c4)c[nH]c3n2)c(OC)c1
Response: 17.7

====

System: 377384-186-R-J1-PDC complex spheroid viability
Test: Anticancer human tumor 377384-186-R-J1-PDC cell line growth inhibition [CLK];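 also: luminescence signal used as a stand-in for viable cells; spheroids exposed to agents for 7 days before reading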
Settings: second compound 0.316 µM; first compound 3.16 µM; hits give low values
Classification field. Basis: viability, T/C. Definitions: low = under 10%, moderate = from 10% up to 20%, high = 20% and over

Observe how each entry below is paired with its result.
compound: COC1C=CCC(C)C(C)S(=O)(=O)NC(=O)c2ccc3c(c2)N(CC2CCC21)CC1(CCCc2cc(Cl)ccc21)CO3 (stereo not given) + CNC(=O)c1ccc(Nc2nc(OC3CCCC3)c3c(-c4ccc5nc(C)oc5c4)c[nH]c3n2)c(OC)c1
class: high
//
compound: CC(CO)NC(=O)c1cc(-c2ccc(Cl)cc2)nn(-c2cnn(C)c2)c1=O (stereo not given) + CNC(=O)c1ccc(Nc2nc(OC3CCCC3)c3c(-c4ccc5nc(C)oc5c4)c[nH]c3n2)c(OC)c1
class: high
//
compound: Nc1ccn(C2OC(CO)C(O)C2(F)F)c(=O)n1 (stereo not given) + CN1CCN(c2cc(C(=O)Nc3cc4cc(-c5cnn(C)c5)ccc4cn3)ccn2)CC1
class: low
//
compound: CCCS(=O)(=O)Nc1ccc(F)c(C(=O)c2c[nH]c3ncc(-c4ccc(Cl)cc4)cc23)c1F + CN1CCN(c2cc(C(=O)Nc3cc4cc(-c5cnn(C)c5)ccc4cn3)ccn2)CC1
class: high
//
compound: CC1COCCN1c1cc(C2(S(C)(=N)=O)CC2)nc(-c2ccnc3[nH]ccc23)n1 (stereo not given) + CN1CCN(c2cc(C(=O)Nc3cc4cc(-c5cnn(C)c5)ccc4cn3)ccn2)CC1
class: moderate
//
compound: C=C(F)C(=O)N1CCN(c2nc(OCC3CCCN3C)nc3c2CCN(c2cccc4cccc(Cl)c24)C3)CC1CC#N (stereo not given) + CNC(=O)c1ccc(Nc2nc(OC3CCCC3)c3c(-c4ccc5nc(C)oc5c4)c[nH]c3n2)c(OC)c1
class: moderate

Prompt: Which class holds COc1cccc2c1C(=O)c1c(O)c3c(c(O)c1C2=O)CC(O)(C(=O)CO)CC3OC1CC(N)C(O)C(C)O1 (stereo not given) + CNC(=O)c1ccc(Nc2nc(OC3CCCC3)c3c(-c4ccc5nc(C)oc5c4)c[nH]c3n2)c(OC)c1 ?
Response: low

Prompt: Which class holds Nc1ccn(C2OC(CO)C(O)C2(F)F)c(=O)n1 (stereo not given) + CNC(=O)c1ccc(Nc2nc(OC3CCCC3)c3c(-c4ccc5nc(C)oc5c4)c[nH]c3n2)c(OC)c1 ?
Response: low

Prompt: Which class holds CC1(C)CCC(CN2CCN(c3ccc(C(=O)NS(=O)(=O)c4ccc(NCC5CCOCC5)c([N+](=O)[O-])c4)c(Oc4cnc5[nH]ccc5c4)c3)CC2)=C(c2ccc(Cl)cc2)C1 + CNC(=O)c1ccc(Nc2nc(OC3CCCC3)c3c(-c4ccc5nc(C)oc5c4)c[nH]c3n2)c(OC)c1 ?
Response: moderate

Prompt: Which class holds COc1ccc([C@@H](O)c2cc(-c3ncnc4cc(N5CCOCC5)ccc34)c(F)cc2Cl)nn1 + CNC(=O)c1ccc(Nc2nc(OC3CCCC3)c3c(-c4ccc5nc(C)oc5c4)c[nH]c3n2)c(OC)c1 ?
Response: moderate
